Ok so here's the combined literature set: pIC50 for Receptor tyrosine-protein kinase erbB-2 (Homo sapiens, UniProt P04626).
pIC50: −log10 of the molar value.

Sample COc1cc(Nc2ncnc(-n3c(NCCc4ccccc4)nc4ccccc43)n2)cc(OC)c1OC ; pIC50 observed: 5.15 to 5.32

Lookup result for CC(=O)N1CCN(c2ccc(Nc3nccc(-c4sc(C(C)C)nc4-c4cccc(NS(=O)(=O)c5cn(C)cn5)c4)n3)cn2)CC1 ; measured pIC50: < 6.00

get_value(item= CN(C)C/C=C/C(=O)N1CCOc2c1ccc1ncnc(Nc3ccc(OCc4cccc(F)c4)cc3)c21 , readout=pIC50) returns ≥ 7.30

Data point: COc1cc(Nc2ncnc(N(C)c3cccc(Cl)c3)n2)cc(OC)c1OC ; pIC50 = > 6.00
